- Experimental protocol: qHTS profiling of the MIPE4 collection as inhibitors of Plasmodium falciparum (DD2) proliferation (AID 743345)
- Condition description: P. falciparum Dd2 in erythrocytes, SYBR Green DNA, 72 h; at 28.5 µM (top of the series) unless noted
Recorded endpoint: parasite growth remaining, % of DMSO control (lower = more inhibition) (%)

| Compound | Test value |
| --- | --- |
| C1CCC(C(CC2CCCCN2)C2CCCCC2)CC1 (centres undefined) | 7.9 |
| CCCOc1ccc(C(=O)OCCN(CC)CC)cc1N | 88.7 |
| CC1CC2C3CCC4=CC(=O)C=C[C@]4(C)[C@@]3(F)[C@@H](O)C[C@]2(C)[C@@]1(O)C(=O)CO (some centres undefined) | 90.6 |
| COCCCOc1cc(C[C@@H](C[C@H](N)[C@@H](O)C[C@H](C(=O)NCC(C)(C)C(N)=O)C(C)C)C(C)C)ccc1OC | 119 |

* * *

- Experimental protocol: qHTS of pediatric cancer cell lines to identify multiple opportunities for drug repurposing: Primary screen for MG 63 (6-TG R) cells (AID 1347105); further: nearly all actives have a fitted effect of over 50% in size
- Condition description: MG 63 (6-TG R) viability, CellTiter-Glo, 48 h; series mostly up to 46 µM
Results filed as inconclusive are left out. The source made the active and inactive calls. Calls follow the shape of the dose curve; as a rule, active = well fitted cell-killing curve with a large enough effect; inconclusive = small, poorly fitted or top-dose-only effect; inactive = no such curve, though single readings can be large or run the other way.
Possible outcomes: yes (1) (active), no (0) (inactive)

| Compound | Group label |
| --- | --- |
| Clc1ccccc1CN1CCc2sccc2C1 | no (0) |
| CCN(CC)CC#CCOC(=O)C(O)(c1ccccc1)C1CCCCC1 (configuration not stated) | no (0) |
| COc1cc2nc(N3CCCN(C)CC3)nc(NC3CCN(Cc4ccccc4)CC3)c2cc1OC | yes (1) |
| CC1CC2C3CCC4=CC(=O)C=C[C@]4(C)[C@@]3(F)[C@@H](O)C[C@]2(C)[C@@]1(O)C(=O)CO (some centres not stated) | no (0) |
| COc1cc(NCc2ccc3nc(N)nc(N)c3c2C)cc(OC)c1OC | no (0) |
| Cc1cccc(N(C)C(=S)Oc2ccc3ccccc3c2)c1 | no (0) |
| Cc1onc(-c2ccccc2Cl)c1C(=O)N[C@@H]1C(=O)N2[C@@H]1SC(C)(C)[C@@H]2C(=O)O | no (0) |

* * *

- Tested on: CP265
- Experimental protocol: qHTS profiling for inhibitors of Plasmodium falciparum proliferation (AID 504749); further: nearly all actives have a fitted effect of over 60% in size
- Condition description: P. falciparum in erythrocytes, SYBR Green DNA, 72 h; series mostly up to 28.7 µM
Inconclusive results are not listed. Activity calls are given as the source filed them. Calls come from the whole dose curve; as a rule, active = well fitted inhibition curve with a large enough effect; inconclusive = small, poorly fitted or top-dose-only effect; inactive = flat fitted curve, though single readings scatter.
Classes used: t (active), f (inactive)

| Molecule | System tested | Group label |
| --- | --- | --- |
| Cc1cccc(N(C)C(=S)Oc2ccc3ccccc3c2)c1 | CP265 | f |
| COc1cc([C@@H]2c3cc4c(cc3[C@H](O)[C@H]3COC(=O)[C@H]23)OCO4)cc(OC)c1OC | CP265 | t |
| O=c1oc2c(O)c(O)cc3c(=O)oc4c(O)c(O)cc1c4c23 | CP265 | f |
| CC(C)Cn1cnc2c(N)nc3ccccc3c21 | CP265 | f |
| COc1cc2c(Nc3ccc(Br)cc3F)ncnc2cc1OCC1CCN(C)CC1 | CP265 | t |
| Cn1nnc2c(C(N)=O)ncn2c1=O | CP265 | f |
| CCc1cc(C(N)=S)ccn1 | CP265 | f |
| CC1=CC(=O)c2ccccc2C1=O | CP265 | f |
| N=C(N)c1ccc(OCCCCCOc2ccc(C(=N)N)cc2)cc1 | CP265 | t |
| CN(CCOc1ccc(CC2SC(=O)NC2=O)cc1)c1ccccn1 (stereo not given) | CP265 | f |

* * *

- Tested on: CASKI
- Experimental protocol: Primary qHTS to identify gynecologic anti-cancer compounds using libraries of approved drugs and bioactive compounds (AID 1345084); further: on the % scale 0 is the no-effect control and ±100 the full control effect; nearly all actives have a fitted effect of over 55% in size
- Condition description: Gynecologic cancer cell panel viability, ATPlite luminescence, 48 h; series mostly up to 57.5 µM
Results filed as inconclusive are left out. The source made the active and inactive calls. The call rests on the fitted dose curve; in most records, active means well fitted cell-killing curve with a large enough effect; inconclusive means small, poorly fitted or top-dose-only effect, or effect the other way; inactive means flat fitted curve, though single readings scatter.
Recorded endpoint: outcome

| Compound | System tested | Recorded endpoint | Test value |
| --- | --- | --- | --- |
| O=c1oc2c(O)c(O)cc3c(=O)oc4c(O)c(O)cc1c4c23 | CASKI | outcome | inactive |
| O=C(O)CSCC(=O)NC1CCSC1=O (stereo not drawn) | CASKI | outcome | inactive |
| CC(C)(Sc1cc(C(C)(C)C)c(O)c(C(C)(C)C)c1)Sc1cc(C(C)(C)C)c(O)c(C(C)(C)C)c1 | CASKI | outcome | inactive |

* * *

- System tested: M-phase phosphoprotein 8 (Homo sapiens) (UniProt Q99549)
- Sequence (Q99549 whole entry, looked up): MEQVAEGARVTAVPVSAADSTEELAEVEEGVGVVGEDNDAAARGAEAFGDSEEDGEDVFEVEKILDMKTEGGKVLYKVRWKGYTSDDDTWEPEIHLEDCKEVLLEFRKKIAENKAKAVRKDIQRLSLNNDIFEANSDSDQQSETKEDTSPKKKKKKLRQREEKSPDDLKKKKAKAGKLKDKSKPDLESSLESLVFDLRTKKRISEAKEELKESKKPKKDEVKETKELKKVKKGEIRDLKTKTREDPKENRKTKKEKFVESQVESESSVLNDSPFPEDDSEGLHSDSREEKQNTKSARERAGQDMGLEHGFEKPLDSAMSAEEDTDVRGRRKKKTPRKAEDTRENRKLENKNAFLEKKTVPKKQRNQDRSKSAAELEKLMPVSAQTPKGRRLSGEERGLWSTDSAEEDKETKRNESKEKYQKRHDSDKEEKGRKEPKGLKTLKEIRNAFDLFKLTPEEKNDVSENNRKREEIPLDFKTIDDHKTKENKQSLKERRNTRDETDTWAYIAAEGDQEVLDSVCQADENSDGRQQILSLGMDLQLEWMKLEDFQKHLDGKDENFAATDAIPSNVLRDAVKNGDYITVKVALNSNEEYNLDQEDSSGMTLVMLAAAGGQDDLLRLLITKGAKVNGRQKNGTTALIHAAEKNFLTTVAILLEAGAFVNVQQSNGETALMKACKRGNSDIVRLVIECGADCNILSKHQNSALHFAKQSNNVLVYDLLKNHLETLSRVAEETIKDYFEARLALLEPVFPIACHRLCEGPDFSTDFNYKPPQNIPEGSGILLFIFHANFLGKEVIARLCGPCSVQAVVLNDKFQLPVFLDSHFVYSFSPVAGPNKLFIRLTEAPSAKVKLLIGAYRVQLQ
- Experimental protocol: qHTS Validation Assay for Inhibitors for MPP8 Chromodomain Interactions with Methylated Histone Tails (AID 488949); further: nearly all actives have a fitted effect of over 55% in size
- Condition description: AlphaScreen MPP8 binding to H3K9me3 peptide; series mostly up to 57.1 µM
Inconclusive results are not listed. Activity calls are given as the source filed them. The call rests on the fitted dose curve; in most records, active means well fitted inhibition curve with a large enough effect; inconclusive means small, poorly fitted or top-dose-only effect; inactive means no such curve, though single readings can be large or run the other way.
Outcome codes: active, inactive

| Compound | Group label |
| --- | --- |
| O=C(O)C1CCCN(CCC=C(c2ccccc2)c2ccccc2)C1 (centres undefined) | inactive |
| CCN(CC)CCn1c(=O)c(Cc2ccc(OC)cc2)nc2ccccc21 | inactive |
| OCc1ccc(-c2nn(Cc3ccccc3)c3ccccc23)o1 | active |
| NC(=O)c1ccc2[nH]ccc2c1 | inactive |

* * *

Here the recorded z-score is given for each entry.
- Experimental protocol: qHTS for identification of novel therapeutic agents for treatment of microphthalmiaassociated transcription factor (MiT) renal cell carcinoma (RCC) (AID 1963991);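 further: curves scaled with 100% = DMSO viability and 0% = empty wells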
- Condition description: TFE3-RCC UOK109 viability, CellTiter-Glo, 48 h; measured here: UOK109 Z-AUC; stronger effect = lower value
Results filed as inconclusive are left out.

| Compound | z-score |
| --- | --- |
| COc1ncnc(NS(=O)(=O)c2ccc(N)cc2)c1OC | 0.466 |
| NC(=O)N1c2ccccc2CC(=O)c2ccccc21 | 0.211 |
| CC1=C(C(=O)O)N2C(=O)[C@@H](NC(=O)C(N)c3ccccc3)[C@H]2SC1 (stereo partly drawn) | 1.68 |
| CCOC(=O)c1ccc(OC(=O)CCCCCN=C(N)N)cc1 | 0.377 |
| CN(C)CCc1c[nH]c2ccc(CS(=O)(=O)N3CCCC3)cc12 | -0.684 |
| CO[C@@H]1[C@@H](OC(N)=O)[C@@H](O)[C@H](Oc2ccc3c(O)c(NC(=O)c4ccc(O)c(CC=C(C)C)c4)c(=O)oc3c2C)OC1(C)C | 0.755 |
| CCOc1cc(N)c(Cl)cc1C(=O)NCC1CN(Cc2ccc(F)cc2)CCO1 (stereo not drawn) | -0.211 |
| COC(c1ccccc1)(c1ccccc1)[C@H](Oc1nc(C)cc(C)n1)C(=O)O | 1.16 |
| CCn1cc(C(=O)O)c(=O)c2cc(F)c(N3CCNCC3)nc21 | 0.63 |
| COc1ccc2c(c1)c(CC(=O)OCC(=O)O)c(C)n2C(=O)c1ccc(Cl)cc1 | 1.12 |
| C#CCN[C@@H]1CCc2ccccc21 | 0.682 |
| O=NN(CCCl)C(=O)NC1CCCCC1 | 0.385 |
| CCCCS(=N)(=O)CCC(N)C(=O)O (stereo not drawn) | 0.217 |

* * *

- Tested on: 3D7
- Experimental protocol: qHTS profiling for inhibitors of Plasmodium falciparum proliferation (AID 504749); further: nearly all actives have a fitted effect of over 60% in size
- Condition description: P. falciparum in erythrocytes, SYBR Green DNA, 72 h; series mostly up to 28.7 µM
Records with an inconclusive call do not appear. Active and inactive are the calls of the source. Calls come from the whole dose curve; as a rule, active = well fitted inhibition curve with a large enough effect; inconclusive = small, poorly fitted or top-dose-only effect; inactive = flat fitted curve, though single readings scatter.
Outcome codes: true = active, false = inactive

| Molecule | System tested | Group label |
| --- | --- | --- |
| N=C(N)c1ccc(OCCCCCOc2ccc(C(=N)N)cc2)cc1 | 3D7 | true |
| Cc1oc(=O)oc1CN1CCN(c2cc3c(cc2F)c(=O)c(C(=O)O)c2n3C(C)S2)CC1 (stereo not drawn) | 3D7 | true |
| O=NN(CCCl)C(=O)NC1CCCCC1 | 3D7 | false |
| CCn1cc(C(=O)O)c(=O)c2cc(F)c(N3CCNCC3)nc21 | 3D7 | false |
| C1CCC(C(CC2CCCCN2)C2CCCCC2)CC1 (stereo not drawn) | 3D7 | true |
| CC(C)NCC(O)c1ccc(NS(C)(=O)=O)cc1 (stereo not drawn) | 3D7 | false |
| CCn1cc(C(=O)O)c(=O)c2cc(F)c(N3CCN(C)CC3)cc21 | 3D7 | false |
| CN1CCCC(n2nc(Cc3ccc(Cl)cc3)c3ccccc3c2=O)CC1 (stereo not drawn) | 3D7 | false |
| CN(C)c1ccc(C(=C2C=CC(=[N+](C)C)C=C2)c2ccc(N(C)C)cc2)cc1 | 3D7 | true |
| Cc1ncc([N+](=O)[O-])n1CCO | 3D7 | false |
| COC(=O)Nc1nc2ccc(Sc3ccccc3)cc2[nH]1 | 3D7 | false |
| CN(C)CCc1c[nH]c2ccc(CS(=O)(=O)N3CCCC3)cc12 | 3D7 | false |
| C[C@@H](NCCCc1cccc(C(F)(F)F)c1)c1cccc2ccccc12 | 3D7 | true |
